Every entry's value here was drawn from patent US11312718B2.

- assay: Pharmacokinetics, repeat oral dose
- Assay type: in vivo
- run conditions: both sexes, human, plasma; Day 14; repeat oral dosing 1, 2, 5, 10 mg (QD Days 1 and 14, BID Days 2 through 13); range over doses

- compound: "C[C@H](Nc1ncnc2[nH]cnc12)c1cc2cccc(Cl)c2c(=O)n1-c1ccccc1 [Form C]"
  AUC: "100 to 2500 ng·h/mL"

* * *

- assay: Pharmacokinetics, single oral dose
- Type: in vivo
- run conditions: both sexes, human, plasma; healthy adult subjects, fasting, single oral dose 1 to 30 mg; range over doses
outcome measure: half-life

- molecule: "C[C@H](Nc1ncnc2[nH]cnc12)c1cc2cccc(Cl)c2c(=O)n1-c1ccccc1 [Form C]"
  readout value: "3 to 10 h"
